- ASSAY_OVERVIEW: CCTE_Shafer_MEA_dev_active_electrodes_number: CCTE's Neural Network Formation Assay for Number of Active Electrodes, Shafer Lab (AID 2284040)
- Protocol: CCTE_Shafer_MEA_dev assay is conducted using Axion Biosystems 48 well microelectrode array (MEA) plates and Maestro recording system. Each well of the MEA plate contains a grid of 16 microelectrodes embedded in the culture surface. Electrically active cells, such as neurons, can be cultured over the electrodes, and electrical activity in these cells can be recorded extracellularly. […]
Inconclusive results are not listed. The source made the active and inactive calls. How the source made its calls: active means hit-call score of the fitted dose curve at least 0.9, where 1 is the maximum; inconclusive means response in the unintended direction; inactive means score below 0.9.
Please reply with one of these outcomes: Yes for active, No for inactive

COMPOUND	CLASS_ASSIGNMENT
O=C(O)C(F)(F)C(F)(F)C(F)(F)C(F)(F)C(F)(F)C(F)(F)C(F)(F)C(F)(F)C(F)(F)C(F)(F)F	No

In: I'd appreciate the recorded outcome for O=C1C2(Cl)C3(Cl)C4(Cl)C(Cl)(Cl)C5(Cl)C3(Cl)C1(Cl)C5(Cl)C24Cl (stereo not drawn) from this test.
Out: Yes

In: GET /call?item= `CC(C)(C)c1cc(O)ccc1O` returns the recorded outcome of this test.
Out: Yes

In: Per the assay record, what outcome was assigned to `C=C(C)C(=O)[O][Sn]([CH2]CCC)([CH2]CCC)[CH2]CCC` ?
Out: Yes

In: Write down the call the test reported for this compound. Item: ClC1(Cl)C2(Cl)C3(Cl)C4(Cl)C(Cl)(Cl)C5(Cl)C3(Cl)C1(Cl)C5(Cl)C24Cl (stereo not drawn)
Out: Yes

In: What did the test return for CCC(=O)C(CC(C)N(C)C)(c1ccccc1)c1ccccc1 (stereo not drawn) ?
Out: Yes

In: What was the test verdict on `CC(=O)[O][Hg][c]1ccccc1` ?
Out: Yes

In: What call does the record list for `Cn1sc(Cl)cc1=O` ?
Out: Yes
